In this section, each of the compounds is paired with its reported viability, T/C.
# Tested on: 953936-095-R-J2-PDC spheroids with HUVEC/MSC, viability
# EXPERIMENTAL DETAILS: Anticancer human tumor 953936-095-R-J2-PDC patient-derived cervical squamous cell carcinoma cell line growth inhibition [PI3K]
# EXPERIMENTAL SETUP: second compound 0.1 µM; first compound 0.00949 µM; stronger effect = lower value
Numeric answer only, unit % assumed.

See these solved cases before continuing.
{"COMPOUND": "Cn1cnc2c(F)c(Nc3ccc(Br)cc3Cl)c(C(=O)NOCCO)cc21 + COc1c(OCCCN2CCOCC2)ccc2c3n(c(=NC(=O)c4cnc(N)nc4)nc12)CCN3", "viability, T/C (%)": 12.6}
{"COMPOUND": "Cn1cnc2c(F)c(Nc3ccc(Br)cc3Cl)c(C(=O)NOCCO)cc21 + CC(Nc1ccc2c(c1)OCCn1cc(N3C(=O)OCC3C(F)F)nc1-2)C(N)=O", "viability, T/C (%)": 46}
{"COMPOUND": "Cn1cnc2c(F)c(Nc3ccc(Br)cc3Cl)c(C(=O)NOCCO)cc21 + CC(Nc1ncnc2nc[nH]c12)c1cc2cccc(Cl)c2c(=O)n1-c1ccccc1", "viability, T/C (%)": 90.2}

Proceeding to the next compound to report its viability, T/C.
Challenge: Using known records, supply viability, T/C for Cn1cnc2c(F)c(Nc3ccc(Br)cc3Cl)c(C(=O)NOCCO)cc21 + Cc1nc(NC(=O)N2CCCC2C(N)=O)sc1-c1ccnc(C(C)(C)C(F)(F)F)c1
Response given: 78.1

* * *

# Tested on: 953936-095-R-J2-PDC spheroids with HUVEC/MSC, viability
# EXPERIMENTAL DETAILS: Anticancer human tumor 953936-095-R-J2-PDC cell line growth inhibition [PI3K];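 note: spheroids exposed to compounds for seven days before read-out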
# EXPERIMENTAL SETUP: second compound 0.1 µM; first compound 0.1 µM; stronger effect = lower value
Listing of entries alongside the reported viability, T/C.
Give just the number in %; leave the unit off.

Here is how some compounds turned out for viability, T/C.
{"COMPOUND": "C#Cc1c(F)ccc2cc(O)cc(-c3ncc4c(N5CC6CCC(C5)N6)nc(OCC56CCCN5CC(F)C6)nc4c3F)c12 (stereo not given) + Cc1nc(NC(=O)N2CCCC2C(N)=O)sc1-c1ccnc(C(C)(C)C(F)(F)F)c1", "ASSAYED SYSTEM": "953936-095-R-J2-PDC spheroids with HUVEC/MSC, viability", "RECORDED VALUE": 81.7}
{"COMPOUND": "Cn1ncnc1[C@H]1c2n[nH]c(=O)c3cc(F)cc(c23)N[C@@H]1c1ccc(F)cc1 + Cc1nc(NC(=O)N2CCCC2C(N)=O)sc1-c1ccnc(C(C)(C)C(F)(F)F)c1", "ASSAYED SYSTEM": "953936-095-R-J2-PDC spheroids with HUVEC/MSC, viability", "RECORDED VALUE": 81.5}

Challenge: For CCCS(=O)(=O)Nc1ccc(F)c(C(=O)c2c[nH]c3ncc(-c4ccc(Cl)cc4)cc23)c1F + Cc1nc(NC(=O)N2CCCC2C(N)=O)sc1-c1ccnc(C(C)(C)C(F)(F)F)c1 , write its viability, T/C.
Response given: 88.3

Challenge: Write down viability, T/C measured for item Cn1nccc1Nc1nccc(-c2ccn(C(CO)c3ccc(Cl)c(F)c3)c(=O)c2)n1 (stereo not given) + COc1c(OCCCN2CCOCC2)ccc2c3n(c(=NC(=O)c4cnc(N)nc4)nc12)CCN3
Response given: 15.6

Challenge: Consider the compound C#Cc1c(F)ccc2cc(O)cc(-c3ncc4c(N5CC6CCC(C5)N6)nc(OCC56CCCN5CC(F)C6)nc4c3F)c12 (stereo not given) + COc1c(OCCCN2CCOCC2)ccc2c3n(c(=NC(=O)c4cnc(N)nc4)nc12)CCN3 . State its measured viability, T/C.
Response given: 18.8

* * *

# Test system: 953936-095-R-J2-PDC spheroids with HUVEC/MSC, viability
# EXPERIMENTAL DETAILS: Anticancer human tumor 953936-095-R-J2-PDC cell line growth inhibition [PI3K];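 note: spheroids exposed to compounds for seven days before read-out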
# EXPERIMENTAL SETUP: second compound 10 µM; first compound 0.000316 µM; stronger effect = lower value
READOUT LABEL: viability, T/C (%)
Give your result in % as a bare value.

{"MOLECULE": "Cn1ncnc1[C@H]1c2n[nH]c(=O)c3cc(F)cc(c23)N[C@@H]1c1ccc(F)cc1 + Cc1nc(NC(=O)N2CCCC2C(N)=O)sc1-c1ccnc(C(C)(C)C(F)(F)F)c1", "READOUT UNIT": "%", "viability, T/C": 11.4}
{"MOLECULE": "CC(=O)c1c(C)c2cnc(Nc3ccc(N4CCNCC4)cn3)nc2n(C2CCCC2)c1=O + Cc1nc(NC(=O)N2CCCC2C(N)=O)sc1-c1ccnc(C(C)(C)C(F)(F)F)c1", "READOUT UNIT": "%", "viability, T/C": 11.3}
{"MOLECULE": "Cn1ncnc1[C@H]1c2n[nH]c(=O)c3cc(F)cc(c23)N[C@@H]1c1ccc(F)cc1 + CC(Nc1ncnc2nc[nH]c12)c1cc2cccc(Cl)c2c(=O)n1-c1ccccc1", "READOUT UNIT": "%", "viability, T/C": 56.8}
{"MOLECULE": "CC(C)n1nc(-c2ccc3oc(N)nc3c2)c2c(N)ncnc21 + CC(Nc1ncnc2nc[nH]c12)c1cc2cccc(Cl)c2c(=O)n1-c1ccccc1", "READOUT UNIT": "%", "viability, T/C": 57.7}
{"MOLECULE": "CC(C)n1nc(-c2ccc3oc(N)nc3c2)c2c(N)ncnc21 + Cc1nc(NC(=O)N2CCCC2C(N)=O)sc1-c1ccnc(C(C)(C)C(F)(F)F)c1", "READOUT UNIT": "%", "viability, T/C": 11.7}

Challenge: Respond only with viability, T/C recorded for CC(=O)c1c(C)c2cnc(Nc3ccc(N4CCNCC4)cn3)nc2n(C2CCCC2)c1=O + CC(Nc1ncnc2nc[nH]c12)c1cc2cccc(Cl)c2c(=O)n1-c1ccccc1
Response given: 59.9

* * *

# Tested on: 953936-095-R-J2-PDC spheroids with HUVEC/MSC, viability
# EXPERIMENTAL DETAILS: Anticancer human tumor 953936-095-R-J2-PDC cell line growth inhibition [PI3K]; active = viability on the fitted dose curve at most 10% of control; inactive = the rest;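 note: spheroids exposed to compounds for seven days before read-out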
# EXPERIMENTAL SETUP: second compound 1 µM; first compound 3.16 µM
// one of t for active, f for inactive, no free text

{"COMPOUND": "CC(Cn1ccc(-c2ccc(C#N)c(Cl)c2)n1)NC(=O)c1cc(C(C)O)[nH]n1 (stereo not given) + Cc1nc(NC(=O)N2CCCC2C(N)=O)sc1-c1ccnc(C(C)(C)C(F)(F)F)c1", "CAT": "f"}

Challenge: Assay result, entry C#Cc1c(F)ccc2cc(O)cc(-c3ncc4c(N5CC6CCC(C5)N6)nc(OCC56CCCN5CC(F)C6)nc4c3F)c12 (stereo not given) + CC(Nc1ncnc2nc[nH]c12)c1cc2cccc(Cl)c2c(=O)n1-c1ccccc1 — outcome?
Response given: f

Challenge: Recorded test call requested for C=CC(=O)N1CCN(c2nc(=O)n(-c3c(C)ccnc3C(C)C)c3nc(-c4c(O)cccc4F)c(F)cc23)C(C)C1 (stereo not given) + Cc1nc(NC(=O)N2CCCC2C(N)=O)sc1-c1ccnc(C(C)(C)C(F)(F)F)c1
Response given: f

Challenge: Per the assay record, what outcome was assigned to Cn1ncc(Cl)c1-c1cc(C(=O)NC(CN)Cc2cccc(F)c2)sc1Cl (stereo not given) + CC(Nc1ccc2c(c1)OCCn1cc(N3C(=O)OCC3C(F)F)nc1-2)C(N)=O ?
Response given: f

Challenge: How was CC1(C)CCC(CN2CCN(c3ccc(C(=O)NS(=O)(=O)c4ccc(NCC5CCOCC5)c([N+](=O)[O-])c4)c(Oc4cnc5[nH]ccc5c4)c3)CC2)=C(c2ccc(Cl)cc2)C1 + CC(Nc1ncnc2nc[nH]c12)c1cc2cccc(Cl)c2c(=O)n1-c1ccccc1 classified in this test?
Response given: f

Challenge: Please state the recorded outcome for this compound: C=CC(=O)N1CCN(c2nc(=O)n(-c3c(C)ccnc3C(C)C)c3nc(-c4c(O)cccc4F)c(F)cc23)C(C)C1 (stereo not given) + CC(Nc1ncnc2nc[nH]c12)c1cc2cccc(Cl)c2c(=O)n1-c1ccccc1
Response given: f

Challenge: Look up the recorded call for C#Cc1c(F)ccc2cc(O)cc(-c3ncc4c(N5CC6CCC(C5)N6)nc(OCC56CCCN5CC(F)C6)nc4c3F)c12 (stereo not given) + COc1c(OCCCN2CCOCC2)ccc2c3n(c(=NC(=O)c4cnc(N)nc4)nc12)CCN3 in this test.
Response given: t

Challenge: Name the outcome recorded for CCCS(=O)(=O)Nc1ccc(F)c(C(=O)c2c[nH]c3ncc(-c4ccc(Cl)cc4)cc23)c1F + Cc1nc(NC(=O)N2CCCC2C(N)=O)sc1-c1ccnc(C(C)(C)C(F)(F)F)c1 in the assay.
Response given: f
